Target: recombinant human PAI-1 (Homo sapiens, UniProt P05121)
Construct: purchased Molecular Innovations, Inc
Sequence (P05121 24-402): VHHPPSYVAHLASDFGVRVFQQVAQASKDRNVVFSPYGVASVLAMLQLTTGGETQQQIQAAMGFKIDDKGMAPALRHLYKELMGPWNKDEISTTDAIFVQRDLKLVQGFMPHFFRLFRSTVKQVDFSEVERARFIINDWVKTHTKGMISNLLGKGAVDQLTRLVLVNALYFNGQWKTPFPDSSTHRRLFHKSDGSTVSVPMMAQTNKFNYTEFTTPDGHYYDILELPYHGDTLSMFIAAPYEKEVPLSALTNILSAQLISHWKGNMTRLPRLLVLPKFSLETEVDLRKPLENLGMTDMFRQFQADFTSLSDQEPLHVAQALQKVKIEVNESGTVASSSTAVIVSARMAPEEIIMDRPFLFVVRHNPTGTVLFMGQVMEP
Assay: Test Example 2: human PAI-1 inhibitory activity (tPA fluorogenic substrate, pH 7.4 HEPES buffer)
Assay type: biochemical
Conditions: human PAI-1; compound concentration 3 μM
Could you please report measured Inhibition Rate of PAI-1 Activity (%) for the items listed next?
Enter your answer as a number in %; do not include the unit.

Data request: Query the reported Inhibition Rate of PAI-1 Activity (%) for recombinant human PAI-1 (Homo sapiens, UniProt P05121); item: O=C(O)/C=C/c1cc(-c2ccc(OC(F)(F)F)cc2)ccc1OCCCCCOc1ccc(-c2ccc(OC(F)(F)F)cc2)cc1/C=C/C(=O)O
Data returned: 94

Data request: Please answer likewise for CCCCN(CC(=O)O)c1cc(-c2ccc(OC(F)(F)F)cc2)ccc1Oc1ccc(C(C)(C)C)cc1
Data returned: 94

Data request: // same read-out, input: O=C(O)CCc1ccc(-c2ccc(OC(F)(F)F)cc2)cc1OCCCSc1ccccc1
Data returned: 98

Data request: Another compound to check: CCCCOc1ccc(-c2ccc(OC(F)(F)F)cc2)cc1CCC(=O)O
Data returned: 41

Data request: Entry to check: O=C(O)C(=O)N(CCCCc1ccccc1)c1cc(-c2ccc(OC(F)(F)F)cc2)ccc1OC1C2CC3CC(C2)CC1C3 (stereo not shown)
Data returned: 92

Data request: Try the compound CC(C)(C)c1ccc(Oc2ccc(Oc3ccc(OC(F)(F)F)cc3)cc2OCC(=O)O)cc1
Data returned: 97

Data request: Record: CC(C)(C)c1ccc(N(CC(=O)O)c2ccccc2Oc2ccc(OC(F)(F)F)cc2)cc1
Data returned: 94

Data request: Would you kindly repeat that for O=C(O)CCc1ccc(-c2ccc(OC(F)(F)F)cc2)cc1OCCCOCc1ccccc1 ?
Data returned: 91

Data request: Same read-out for O=C(O)c1cc(-c2ccc(OC(F)(F)F)cc2)ccc1OCc1ccccc1 ?
Data returned: 15

Data request: Similarly, CCCCCOc1ccc(-c2ccc(C)cc2)cc1N(CCCCc1ccccc1)C(=O)C(=O)O ?
Data returned: 98

Data request: Now the same for Cc1ccc(-c2ccc(OCC(=O)O)c(Oc3ccc(C(C)(C)C)cc3)c2)cc1
Data returned: 96

Data request: Also need CCCCCCOc1ccc(-c2ccc(OC(F)(F)F)cc2)cc1OC(CCCCCC)C(=O)O (stereo not shown) , thanks.
Data returned: 95

Data request: CC(C)[C@@H]1CC[C@@H](C)C[C@H]1Oc1ccc(-c2ccc(OC(F)(F)F)cc2)cc1N(CCCCc1ccccc1)C(=O)C(=O)O ?
Data returned: 87

Data request: Record: O=C(O)COc1cc(Oc2ccc(OC(F)(F)F)cc2)ccc1OCCCCc1ccccc1
Data returned: 94

Data request: Another: CC(C)(C)c1ccc(Oc2cc(-c3ccc(OC(F)(F)F)cc3)ccc2N(CCCCc2ccccc2)C(=O)C(=O)O)cc1
Data returned: 91
